Values were extracted from PubChem BioAssay.

In this section, each of the compounds is paired with its reported viability.
RUN_DESCRIPTION: MRP1 drug-resistance reversers in H69AR cells – cell-based, doxorubicin co-treatment, pilot screen (AID 601)
CONDITION_NOTES: H69AR cells + 2 uM doxorubicin, CellTiter-Glo, 72 h; measured here: viability with 2 uM doxorubicin; at 10 µM; stronger effect = lower value
Numeric only. Scale: %

# count of solved cases: 6
- COMPOUND: "CCC1CCCCN1C(=O)CSc1nnc(-c2ccc(OC)cc2)o1 (configuration not stated)"
  QUANTITY_UNIT: "%"
  viability: 94.1
- COMPOUND: "CC(C)CNc1oc(-c2ccc(F)cc2)nc1C#N"
  QUANTITY_UNIT: "%"
  viability: 92.5
- COMPOUND: "COc1ccc(NC(=O)CC2CCCCC2)cc1OC"
  QUANTITY_UNIT: "%"
  viability: 90.2
- COMPOUND: "CCOc1ccc(C2CC(c3ccccc3C)n3nc(N)nc3N2)cc1 (configuration not stated)"
  QUANTITY_UNIT: "%"
  viability: 102
- COMPOUND: "O=C(Nc1ccc(Cl)cn1)c1cccnc1"
  QUANTITY_UNIT: "%"
  viability: 87.6
- COMPOUND: "O=C(Nc1ccc2snnc2c1)N1CCN(c2ccccc2)CC1"
  QUANTITY_UNIT: "%"
  viability: 92.9

Challenge: For COC(=O)CN1C(=O)C(O)(CC(=O)c2ccc(Cl)cc2)c2ccccc21 (configuration not stated) , what is its reported viability?
Response given: 91.8

Challenge: I have this compound here, Cc1cccc(OCC(=O)Nc2ccc(N3CCCC3)cc2)c1C , and I need its recorded viability.
Response given: 59.7

Challenge: // query viability value for entry Cn1c(=O)c(=O)n(C)c2cc(S(=O)(=O)CCC(=O)N3CCOCC3)ccc21
Response given: 102

Challenge: For the compound Cc1ccc(-c2nc3cc(NC(=O)C(C)C)ccc3o2)cc1 , what viability is on record?
Response given: 83.6

Challenge: What does the record list as viability for CCOc1ccc(Cn2nnc(C(=O)NCc3ccc(OC)cc3)c2N)cc1 ?
Response given: 91.6

Challenge: Field request: viability | item: Fc1cccc(Nc2ncnc3c2cnn3-c2ccccc2)c1
Response given: 69.5

Challenge: Give the measured viability of CCOc1ccc(C2CC(c3cccc(OC)c3)Nc3nc(N)nn32)cc1 (configuration not stated) .
Response given: 93

Challenge: Item under review: O=C1CC(c2cccnc2)c2cc3c(cc2N1)OCO3 (configuration not stated) . Reported viability?
Response given: 85.7

Challenge: Tell me the measured viability of CC1=C(C(=O)Nc2ccc(F)cc2)C(c2cccc(C)c2)n2nc(CCCO)nc2N1 (configuration not stated) , please.
Response given: 92.5

Challenge: Returns the measured viability for the input compound. Input: Cc1ccc(OCC(O)CN2C(=O)NC(C)(C)C2=O)cc1C (configuration not stated)
Response given: 86.4

Challenge: Looking for the measured viability of CCOCCOc1nc2c(c(=O)n(C)c(=O)n2C)n1Cc1ccc(C)cc1 , can you help?
Response given: 95.4

Challenge: Name the reported viability value associated with the compound CCOC(=O)N1CCC(NC(=O)c2cc3c(=O)n(C)c4ccccc4c3n2C)CC1
Response given: 77.3

Challenge: I'd like to know its viability. The compound in question is CCCOc1ccc(NC2=CC(=O)CC(C)(C)C2)cc1
Response given: 93

Challenge: I'd like to know its viability. The compound in question is CCCOC(=O)C1C2C=CC3(CN(c4cccc(Cl)c4)C(=O)C13)O2 (configuration not stated)
Response given: 93.8

---

Listing of entries alongside the reported viability.
RUN_DESCRIPTION: MRP1 drug-resistance reversers in H69AR cells – cell-based, doxorubicin co-treatment, pilot screen (AID 601)
CONDITION_NOTES: H69AR cells + 2 uM doxorubicin, CellTiter-Glo, 72 h; measured here: viability with 2 uM doxorubicin; at 10 µM; stronger effect = lower value
Note: unit % is implicit; provide only the numeric part.

As a guide, the following entries are already answered.
- SMILES_CODE: "CCOC(=O)N1CCN(C(=O)c2c(-c3ccccc3)noc2C)CC1"
  ENDPOINT_VALUE: 89.5
- SMILES_CODE: "Cc1ccc(S(=O)(=O)N(CC(=O)N2CCC(C(N)=O)CC2)Cc2ccc(F)cc2)cc1"
  ENDPOINT_VALUE: 88.8
- SMILES_CODE: "c1ccn2c(SCc3ccc4c(c3)OCCO4)nnc2c1"
  ENDPOINT_VALUE: 91.7

Challenge: GET /values?readout=viability&item= CC1(C)CC(=O)C(C=NCCO)=C(O)C1
Response given: 88.9

---

RUN_DESCRIPTION: S. cerevisiae growth inhibition in permissive medium (OD615), pilot counter-assay for S. cerevisiae lifespan shortening project, permissive growth control (AID 705)
CONDITION_NOTES: OD615, 24 h, at 10 µM, stronger effect = higher value
METRIC_NAME: growth inhibition (%)
# number only, unit % dropped from output

- COMPOUND: "Cc1cc(=O)oc2c1c(C)nn2-c1ccc(C(=O)OC(C)C)cc1"
  ENDPOINT_VALUE: -4.51

Challenge: Requested read-out: growth inhibition. Entry: CCN1C(=O)c2ccccc2S(=O)c2ccc(C(=O)NCCCN3CCCC3=O)cc21 (stereo not drawn)
Response given: -7.88

Challenge: Using the record for CCOc1ccc(NC(=O)CSc2nc3c(c(=O)n2-c2ccccc2OC)SCC3)cc1 , report its growth inhibition.
Response given: -4.54

---

RUN_DESCRIPTION: HUVEC growth inhibition – cell-based, human, primary screen (AID 575);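 further: 100% = median of untreated cell wells with 0.1% DMSO on each plate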
CONDITION_NOTES: HUVEC proliferation, CellTiter-Glo luminescence, 72 h; at 10 µM; stronger effect = lower value
Activity calls are given as the source filed them.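 How the source made its calls: active means viability at or below 30% in both replicate assays; inconclusive means viability at or below 30% in just one of the two assays; inactive means the rest.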
METRIC_NAME: viability

Below, 3 molecules whose answers are already recorded.
- MOLECULE: "Cc1[nH]c2ccccc2c(=O)c1CN1CCCCC1"
  viability: "101% (inactive)"
- MOLECULE: "COc1cc(NC(=O)c2nccnc2C(=O)O)cc(OC)c1"
  viability: "95.7% (inactive)"
- MOLECULE: "CCC1CCCCN1C(=O)CSc1nnc(-c2ccc(OC)cc2)o1 (centres undefined)"
  viability: "99.8% (inactive)"

Query molecule follows.
Challenge: What does the record list as viability for Cc1ccc(-c2cc(C(F)F)n3ncc(C(=O)N4CCN(c5ccccn5)CC4)c3n2)cc1 ?
Response given: 49.2% (inactive)

---

RUN_DESCRIPTION: MRP1 drug-resistance reversers in H69AR cells – cell-based, doxorubicin co-treatment, pilot screen (AID 601)
CONDITION_NOTES: H69AR cells + 2 uM doxorubicin, CellTiter-Glo, 72 h; at 10 µM; stronger effect = higher value
The following molecules are shown together with reported differential viability (reversal) values.
Kindly provide the numeric value in % only, without the unit symbol.

Challenge: Sample COc1ccccc1-n1c(=O)[nH]c2c(C(N)=O)nc(CC(C)C)nc21 — what was its differential viability (reversal)?
Response given: -12.7

Challenge: Record request: differential viability (reversal) value, item COc1ccc(-c2nc(CSCC(=O)N3CCc4ccccc4C3)c(C)o2)cc1OC
Response given: 0.215

Challenge: # lookup: differential viability (reversal) of O=C(Cn1cc2c(n1)CCCC2)NCCc1ccccc1
Response given: -22.7

---

viability values for the compounds below.
RUN_DESCRIPTION: Her2 expression decrease, cell viability multiplex – SKBR3 breast tumor cells, AlphaScreen, ATP viability, primary screen (AID 461);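 further: percent of carrier control wells set as 100% viability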
CONDITION_NOTES: SKBR3 Her2 protein level, 18-24 h, measured here: SKBR3 viability, ATP luminescence, at 10 µM
# output: bare number, implied unit %

- COMPOUND: "CC(NC(=O)c1noc2c1CCCCC2)c1ccccc1 (centres undefined)"
  QUANTITY_UNIT: "%"
  viability: 85.5
- COMPOUND: "Cc1ccc(OCC(O)CN2C(=O)NC(C)(C)C2=O)cc1C (centres undefined)"
  QUANTITY_UNIT: "%"
  viability: 105
- COMPOUND: "Cc1cccc(-n2ncc3c(NCc4cccnc4)ncnc32)c1"
  QUANTITY_UNIT: "%"
  viability: 95.5
- COMPOUND: "CCCCOc1ccc(-c2ncc(Cl)cn2)cc1"
  QUANTITY_UNIT: "%"
  viability: 110
- COMPOUND: "CC1=C(C)CC2C(=O)N(c3cccc4ccccc34)C(=O)C2C1 (centres undefined)"
  QUANTITY_UNIT: "%"
  viability: 104

// next item, viability requested
Challenge: Which viability value belongs to CCOC(=O)Nc1ccc2c(c1)N(C(=O)OCCN(C)C)c1ccccc1CC2 ?
Response given: 94.5

---

RUN_DESCRIPTION: MRP1 drug-resistance reversers in H69AR cells – cell-based, doxorubicin co-treatment, pilot screen (AID 601)
CONDITION_NOTES: H69AR cells, CellTiter-Glo, 72 h; compound alone cytotoxicity; at 10 µM
METRIC_NAME: viability

- SMILES_CODE: "C=CCSc1nnc(Cc2c(C)[nH]c3ccccc23)o1"
  viability: "92.2%"
- SMILES_CODE: "O=C(Nc1nncs1)c1ccccc1NS(=O)(=O)c1cccs1"
  viability: "90.2%"

We now examine a further compound.
Challenge: Any idea what its viability is? The compound is Cc1cc2ncn(C(=O)N3CCOCC3)c2cc1C
Response given: 92.2%
